test system: M14; assay: NCI tumour cell line growth inhibition, 48 h
Activity calls are given as the source filed them. Rule as the data show it: active = GI50 up to about 1.1 µM and inactive = higher.
Hello, when you answer, please use one of the following outcomes: active, inactive

Please review the following examples before continuing.
COc1cc(/C=C/C(C)=O)ccc1OP(=O)(O)O ... inactive
O=C1Oc2ccccc2C(=O)/C1=C/N1C(=O)N/C(=C\c2ccccc2O)C1=O ... inactive
O=S1OC[C@H](CCCl)O1 (some centres not stated) ... inactive
CCCCC(=O)OC[n+]1cccc(-c2c(COC(=O)NC(C)C)c(COC(=O)NC(C)C)c3n2CCC3)c1 ... inactive
NC1=NC(NCC2(CO)CCC2)=CC(OCC2(CO)CCC2)N1 (configuration not stated) ... inactive
Cc1nc2ccccc2c(=O)n1NC(=O)c1ccc(N)cc1 ... inactive
C[N+](C)=c1nc(N2CCOCC2)ss1 ... inactive
Cc1ccc(C)c2c1CCc1cc3ccccc3nc1-2 ... inactive
N=C(N)SCc1cccc(-c2nc3ccccc3c(=O)o2)c1 ... inactive
COC(=O)C#Cc1ccc([N+](=O)[O-])cc1 ... inactive

Request: Per the records of this test, what outcome belongs to COc1ccccc1C1c2cc3c(cc2OC(N2CCCC2)C1C)OCO3 (configuration not stated) ?
Result: inactive

Request: Next up: COC[C@@H](/N=C/c1ccc([N+](=O)[O-])cc1)C(C)C
Result: inactive

Request: And what about the compound CC#COS(=O)(=O)c1ccc(C)cc1 ?
Result: inactive

Request: Also check CCOC(=O)c1ccc(N[C@@H]2c3cc4c(cc3C(C3=CC(=O)C(=O)C(OC)=C3)[C@H]3C(=O)OCC32)OCO4)cc1 (some centres not stated)
Result: inactive

Request: Follow-up item: c1ccc(/N=C(\N2CCCC2)N(CCN2CCCC2)c2ccccc2)cc1
Result: inactive

* * *

Below are GI50 values measured for HCT-15.

Solved entries:
COc1ccccc1N1C(=O)CSC1c1c[nH]c2ccccc12 (stereo not given) ... > 100 µM
Cc1nnc2n(c1=O)CCN2C ... > 100 µM
Clc1ccc(-c2c(C3=NCCN3)nnn2-c2ccccc2)cc1 ... > 100 µM
CC(=O)OCCC[C@@H]1C(=C(C)C)CCC2[C@@]1(C)CC[C@@]1(C)C[C@](C)(CCC=C(C)C)CC[C@]21C (stereo not given in full) ... > 100 µM

Request: Looking for the measured GI50 of N#CCCN(CCC#N)c1ccc(/C=C(/NC(=O)c2cc([N+](=O)[O-])ccc2Cl)C(=O)NN)cc1 , can you help?
Result: > 100 µM

Request: Field entry: CC(=O)NN/C=N/C(C#N)=C(\N)C#N
Result: > 100 µM

Request: Same thing, different molecule: CC(C)OC(=O)C1(C(C)C)CCc2ccc(C(=O)CCC(=O)O)cc21 (stereo not given)
Result: > 100 µM

Request: // repeat for COc1cc2ccc(/C(C)=N/OC(C)=O)cc2cc1OC and report
Result: > 100 µM

Request: Another molecule to look at: Nc1nc(SCCNC(=O)CCc2ccc(O)cc2)nc2c1ncn2C1OC(CO)C(O)C1O (stereo not given)
Result: > 203 µM

* * *

test system: SNB-75; assay: NCI tumour cell line growth inhibition, 48 h
Active and inactive are the calls of the source. Rule as the data show it: active = GI50 up to about 1.1 µM and inactive = higher.
Assign a class; possible classes are 1 (yes) for active, 0 (no) for inactive

The following compounds have reported results that may help.
COC(=O)CC1CCN(C#N)CC1CC[N+](=O)[O-] (stereo not drawn) ... 0 (no)
O=C(c1ccccc1)c1nc2c(Cl)ccc(Cl)c2cc1C(Br)Br ... 1 (yes)

Okay, next one:
Request: Please state the recorded outcome for this compound: COc1cc(S(=O)(=O)Nc2ccc(-c3csc(/N=C\c4cccs4)n3)cc2)ccc1Cl
Result: 0 (no)
